Origin of measurements: paper PMC2825290

target: caALK3 (Homo sapiens, UniProt P36894, Q233D); assay: BMP reporter subtype analysis, caALK3
Sequence (P36894 24-532 Q233D): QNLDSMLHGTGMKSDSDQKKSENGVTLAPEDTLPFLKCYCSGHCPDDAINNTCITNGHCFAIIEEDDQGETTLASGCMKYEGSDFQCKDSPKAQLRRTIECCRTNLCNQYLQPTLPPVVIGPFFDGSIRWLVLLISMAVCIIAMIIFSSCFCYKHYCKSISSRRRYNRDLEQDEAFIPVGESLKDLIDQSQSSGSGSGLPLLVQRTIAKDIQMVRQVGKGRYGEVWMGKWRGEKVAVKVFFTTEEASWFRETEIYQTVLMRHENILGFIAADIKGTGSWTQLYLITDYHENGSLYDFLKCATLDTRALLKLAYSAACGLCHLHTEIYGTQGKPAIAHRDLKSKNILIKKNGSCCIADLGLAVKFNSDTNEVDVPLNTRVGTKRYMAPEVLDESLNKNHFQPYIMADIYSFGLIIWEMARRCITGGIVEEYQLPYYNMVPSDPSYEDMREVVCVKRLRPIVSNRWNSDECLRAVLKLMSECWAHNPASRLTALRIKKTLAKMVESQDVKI
pIC50: −log10 of the molar value.
Endpoint: pIC50

Let me know recorded pIC50 for CC(C)Oc1ccc(-c2cnc3c(-c4ccnc5ccccc45)cnn3c2)cc1 [DMH1] , thanks.
> 6.30

====

molecular target: human VEGF type-II receptor (KDR/Flk-1/VEGFR2) (Homo sapiens); test: In vitro kinase assay KDR
Sequence (P35968 20-1356): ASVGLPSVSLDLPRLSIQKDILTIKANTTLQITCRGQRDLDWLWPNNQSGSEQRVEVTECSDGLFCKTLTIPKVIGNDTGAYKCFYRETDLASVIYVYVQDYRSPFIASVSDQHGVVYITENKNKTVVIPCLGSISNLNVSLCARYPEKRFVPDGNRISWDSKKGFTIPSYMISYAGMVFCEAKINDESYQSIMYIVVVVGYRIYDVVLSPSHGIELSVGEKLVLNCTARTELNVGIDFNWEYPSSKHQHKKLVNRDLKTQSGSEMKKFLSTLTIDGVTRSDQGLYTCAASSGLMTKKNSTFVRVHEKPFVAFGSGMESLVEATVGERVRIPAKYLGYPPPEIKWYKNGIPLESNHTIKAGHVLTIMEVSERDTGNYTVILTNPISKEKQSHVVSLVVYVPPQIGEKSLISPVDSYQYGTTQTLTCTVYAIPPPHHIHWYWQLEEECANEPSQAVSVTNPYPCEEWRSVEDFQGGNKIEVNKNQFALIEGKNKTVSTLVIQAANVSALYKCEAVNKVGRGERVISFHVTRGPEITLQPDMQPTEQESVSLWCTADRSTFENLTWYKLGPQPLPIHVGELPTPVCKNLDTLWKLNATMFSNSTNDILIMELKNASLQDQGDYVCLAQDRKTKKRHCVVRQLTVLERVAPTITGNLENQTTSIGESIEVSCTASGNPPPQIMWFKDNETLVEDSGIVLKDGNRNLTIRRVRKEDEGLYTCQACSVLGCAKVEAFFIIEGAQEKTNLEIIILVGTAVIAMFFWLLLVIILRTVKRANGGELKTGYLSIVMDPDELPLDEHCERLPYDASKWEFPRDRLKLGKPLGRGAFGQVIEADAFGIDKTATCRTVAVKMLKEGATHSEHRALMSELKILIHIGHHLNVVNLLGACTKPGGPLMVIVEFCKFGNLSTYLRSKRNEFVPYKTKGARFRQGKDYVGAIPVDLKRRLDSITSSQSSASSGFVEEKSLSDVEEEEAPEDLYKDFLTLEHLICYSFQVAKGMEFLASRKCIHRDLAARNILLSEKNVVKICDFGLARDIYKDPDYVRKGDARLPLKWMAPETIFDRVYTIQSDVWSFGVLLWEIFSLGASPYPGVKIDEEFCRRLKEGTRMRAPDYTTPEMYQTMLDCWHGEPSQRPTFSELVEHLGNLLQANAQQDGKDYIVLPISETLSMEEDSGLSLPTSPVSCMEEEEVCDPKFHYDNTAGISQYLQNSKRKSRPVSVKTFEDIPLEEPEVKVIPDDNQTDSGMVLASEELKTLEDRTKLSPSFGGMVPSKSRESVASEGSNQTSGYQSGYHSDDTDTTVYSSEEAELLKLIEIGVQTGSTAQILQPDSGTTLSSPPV
Endpoint: IC50

Let me know recorded IC50 for CC(C)Oc1ccc(-c2cnc3c(-c4ccnc5ccccc45)cnn3c2)cc1 , thanks.
> 30 µM
